# Assayed Target: Dual specificity protein kinase CLK4 (Homo sapiens) (UniProt Q9HAZ1)
# Sequence (Q9HAZ1 whole entry, looked up): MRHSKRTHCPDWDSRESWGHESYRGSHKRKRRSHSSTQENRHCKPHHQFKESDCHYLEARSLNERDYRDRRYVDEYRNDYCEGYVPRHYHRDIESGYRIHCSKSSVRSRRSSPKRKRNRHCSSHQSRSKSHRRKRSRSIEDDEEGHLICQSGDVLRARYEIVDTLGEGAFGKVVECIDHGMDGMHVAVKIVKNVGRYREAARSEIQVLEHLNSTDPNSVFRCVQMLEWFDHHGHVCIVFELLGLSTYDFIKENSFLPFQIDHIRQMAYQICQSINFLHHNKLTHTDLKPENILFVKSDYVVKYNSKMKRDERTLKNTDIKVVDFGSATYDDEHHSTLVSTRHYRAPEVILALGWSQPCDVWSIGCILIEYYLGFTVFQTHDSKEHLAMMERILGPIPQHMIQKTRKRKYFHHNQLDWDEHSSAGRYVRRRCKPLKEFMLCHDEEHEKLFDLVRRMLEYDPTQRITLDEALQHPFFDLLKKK
# Test Details: qHTS Assay for Inhibitors of CDC-like Kinase 4 (ADP-Glo Assay) (AID 1771); note: nearly all actives have a fitted effect of over 70% in size
# Experimental Parameters: recombinant CLK4, ADP-Glo luminescence; series mostly up to 80 µM
Results filed as inconclusive are left out. Calls of active or inactive are those of the source. Calls come from the whole dose curve; as a rule, active = well fitted inhibition curve with a large enough effect; inconclusive = small, poorly fitted or top-dose-only effect; inactive = flat fitted curve, though single readings scatter.
Possible outcomes: active, inactive

Smiles Structure: Fc1ccc(Nc2ncncc2-c2ccccc2C(F)(F)F)cc1
Assayed Target: Dual specificity protein kinase CLK4 (Homo sapiens) (UniProt Q9HAZ1)
Group: inactive
--
Smiles Structure: COCCn1c(=O)c(-c2cccs2)nc2cnc(N(C)C)nc21
Assayed Target: Dual specificity protein kinase CLK4 (Homo sapiens) (UniProt Q9HAZ1)
Group: inactive
--
Smiles Structure: COc1ccc(-c2nc3cnc(N4CCNCC4)nc3n(-c3ccc(OC)cc3)c2=O)cc1
Assayed Target: Dual specificity protein kinase CLK4 (Homo sapiens) (UniProt Q9HAZ1)
Group: inactive
--
Smiles Structure: CN(C)C(=O)c1ccc(-c2ccc3ncnc(N(C)C)c3c2)cc1
Assayed Target: Dual specificity protein kinase CLK4 (Homo sapiens) (UniProt Q9HAZ1)
Group: active
--
Smiles Structure: Cn1c(=O)c(-c2cccc(C#N)c2)nc2cnc(Oc3ccccc3)nc21
Assayed Target: Dual specificity protein kinase CLK4 (Homo sapiens) (UniProt Q9HAZ1)
Group: inactive
--
Smiles Structure: COc1ccc(-n2c(=O)c(-c3ccc(Cl)cc3)nc3cnc(N4CCNCC4)nc32)cc1
Assayed Target: Dual specificity protein kinase CLK4 (Homo sapiens) (UniProt Q9HAZ1)
Group: inactive
--
Smiles Structure: CN1CCN(c2ncncc2-c2ccccc2C(F)(F)F)CC1
Assayed Target: Dual specificity protein kinase CLK4 (Homo sapiens) (UniProt Q9HAZ1)
Group: inactive
--
Smiles Structure: Cc1cnc(CNc2ncncc2-c2c(C)noc2C)cn1
Assayed Target: Dual specificity protein kinase CLK4 (Homo sapiens) (UniProt Q9HAZ1)
Group: inactive
--
Smiles Structure: CNc1ncncc1-c1c(C)noc1C
Assayed Target: Dual specificity protein kinase CLK4 (Homo sapiens) (UniProt Q9HAZ1)
Group: inactive
--
Smiles Structure: COc1cccc(-c2ccc3ncnc(NCc4ccccc4)c3c2)c1
Assayed Target: Dual specificity protein kinase CLK4 (Homo sapiens) (UniProt Q9HAZ1)
Group: active
--
Smiles Structure: COc1ccc(-n2c(=O)c(-c3cccs3)nc3cnc(OC)nc32)cc1
Assayed Target: Dual specificity protein kinase CLK4 (Homo sapiens) (UniProt Q9HAZ1)
Group: inactive
--
Smiles Structure: Fc1ccc(Nc2ccnc(-c3ccoc3)n2)cc1
Assayed Target: Dual specificity protein kinase CLK4 (Homo sapiens) (UniProt Q9HAZ1)
Group: inactive
--
Smiles Structure: COc1ncc2nc(-c3cc(F)cc(F)c3)c(=O)n(C)c2n1
Assayed Target: Dual specificity protein kinase CLK4 (Homo sapiens) (UniProt Q9HAZ1)
Group: inactive
--
Smiles Structure: CN1CCN(c2ncc3nc(-c4ccc(F)cc4)c(=O)n(Cc4cccs4)c3n2)CC1
Assayed Target: Dual specificity protein kinase CLK4 (Homo sapiens) (UniProt Q9HAZ1)
Group: inactive
--
Smiles Structure: COCCNc1ncnc2ccc(-c3cccnc3)cc12
Assayed Target: Dual specificity protein kinase CLK4 (Homo sapiens) (UniProt Q9HAZ1)
Group: active
--
Smiles Structure: CN(C)Cc1ccccc1-c1cc(N(C)Cc2ccco2)ncn1
Assayed Target: Dual specificity protein kinase CLK4 (Homo sapiens) (UniProt Q9HAZ1)
Group: inactive
--
Smiles Structure: Cc1nc2cnc(N(C)C)nc2n(C[C@H]2CCCO2)c1=O
Assayed Target: Dual specificity protein kinase CLK4 (Homo sapiens) (UniProt Q9HAZ1)
Group: inactive
--
Smiles Structure: Clc1ccccc1-c1ccc2ncnc(N3CCNCC3)c2c1
Assayed Target: Dual specificity protein kinase CLK4 (Homo sapiens) (UniProt Q9HAZ1)
Group: active
--
Smiles Structure: O=c1c(-c2cccs2)nc2cncnc2n1Cc1ccccc1
Assayed Target: Dual specificity protein kinase CLK4 (Homo sapiens) (UniProt Q9HAZ1)
Group: inactive
--
Smiles Structure: CN1CCN(c2nc(-c3ccccc3C(F)(F)F)nc3ccccc23)CC1
Assayed Target: Dual specificity protein kinase CLK4 (Homo sapiens) (UniProt Q9HAZ1)
Group: inactive
--
Smiles Structure: COc1ccc(-c2nc3cnc(N4CCN(C)CC4)nc3n(Cc3cccs3)c2=O)cc1
Assayed Target: Dual specificity protein kinase CLK4 (Homo sapiens) (UniProt Q9HAZ1)
Group: inactive
--
Smiles Structure: O=c1c(-c2ccc(F)cc2)nc2cnc(Oc3ccccc3)nc2n1C1CC1
Assayed Target: Dual specificity protein kinase CLK4 (Homo sapiens) (UniProt Q9HAZ1)
Group: inactive
--
Smiles Structure: COc1cccc(Cn2c(=O)c(C)nc3cnc(Nc4ccccc4)nc32)c1
Assayed Target: Dual specificity protein kinase CLK4 (Homo sapiens) (UniProt Q9HAZ1)
Group: inactive
--
Smiles Structure: O=c1c(-c2ccc(F)c(F)c2)nc2cncnc2n1C1CC1
Assayed Target: Dual specificity protein kinase CLK4 (Homo sapiens) (UniProt Q9HAZ1)
Group: inactive
--
Smiles Structure: CN(Cc1ccco1)c1cc(-c2ccoc2)ncn1
Assayed Target: Dual specificity protein kinase CLK4 (Homo sapiens) (UniProt Q9HAZ1)
Group: inactive
--
Smiles Structure: COc1cccc(Nc2ncc3nc(C)c(=O)n(Cc4cccs4)c3n2)c1
Assayed Target: Dual specificity protein kinase CLK4 (Homo sapiens) (UniProt Q9HAZ1)
Group: inactive
--
Smiles Structure: FC(F)(F)c1ccccc1-c1nc(NC2CCNCC2)c2ccccc2n1
Assayed Target: Dual specificity protein kinase CLK4 (Homo sapiens) (UniProt Q9HAZ1)
Group: inactive
--
Smiles Structure: COc1ccccc1-c1ccc2ncnc(NC3CCNCC3)c2c1
Assayed Target: Dual specificity protein kinase CLK4 (Homo sapiens) (UniProt Q9HAZ1)
Group: inactive
--
Smiles Structure: CN1CCN(c2ncc3ncc(=O)n(C4CC4)c3n2)CC1
Assayed Target: Dual specificity protein kinase CLK4 (Homo sapiens) (UniProt Q9HAZ1)
Group: inactive
--
Smiles Structure: CCNc1ncc2nc(-c3cn(C)c4ccccc34)c(=O)n(-c3ccc(OC)cc3)c2n1
Assayed Target: Dual specificity protein kinase CLK4 (Homo sapiens) (UniProt Q9HAZ1)
Group: inactive
--
Smiles Structure: CN(C)c1ncc2nc(-c3cn(C)c4ccccc34)c(=O)n(C[C@H]3CCCO3)c2n1
Assayed Target: Dual specificity protein kinase CLK4 (Homo sapiens) (UniProt Q9HAZ1)
Group: inactive
--
Smiles Structure: O=c1c(-c2cc(F)cc(F)c2)nc2cncnc2n1-c1ccccc1
Assayed Target: Dual specificity protein kinase CLK4 (Homo sapiens) (UniProt Q9HAZ1)
Group: inactive
--
Smiles Structure: CC(=O)NCCNc1nc(-c2cccnc2)nc2ccccc12
Assayed Target: Dual specificity protein kinase CLK4 (Homo sapiens) (UniProt Q9HAZ1)
Group: active
--
Smiles Structure: CCNc1ncc2ncc(=O)n(C3CC3)c2n1
Assayed Target: Dual specificity protein kinase CLK4 (Homo sapiens) (UniProt Q9HAZ1)
Group: active
--
Smiles Structure: CN(Cc1ccco1)c1ncncc1-c1ccoc1
Assayed Target: Dual specificity protein kinase CLK4 (Homo sapiens) (UniProt Q9HAZ1)
Group: inactive
--
Smiles Structure: Cc1cnc(CNc2ncnc3ccc(-c4ccoc4)cc23)cn1
Assayed Target: Dual specificity protein kinase CLK4 (Homo sapiens) (UniProt Q9HAZ1)
Group: active
--
Smiles Structure: COc1cccc(Nc2ncc3nc(-c4ccc(Cl)cc4)c(=O)n(C4CC4)c3n2)c1
Assayed Target: Dual specificity protein kinase CLK4 (Homo sapiens) (UniProt Q9HAZ1)
Group: inactive
--
Smiles Structure: Cc1nc2cnc(Oc3ccccc3)nc2n(C)c1=O
Assayed Target: Dual specificity protein kinase CLK4 (Homo sapiens) (UniProt Q9HAZ1)
Group: inactive
--
Smiles Structure: COc1cccc(Cn2c(=O)c(-c3ccc(F)cc3)nc3cnc(OC)nc32)c1
Assayed Target: Dual specificity protein kinase CLK4 (Homo sapiens) (UniProt Q9HAZ1)
Group: inactive
--
Smiles Structure: CN(Cc1ccco1)c1ncnc2ccc(-c3ccoc3)cc12
Assayed Target: Dual specificity protein kinase CLK4 (Homo sapiens) (UniProt Q9HAZ1)
Group: active
--
Smiles Structure: Cc1ccccc1-c1ccc2ncnc(NC3CC3)c2c1
Assayed Target: Dual specificity protein kinase CLK4 (Homo sapiens) (UniProt Q9HAZ1)
Group: active
--
Smiles Structure: O=c1c(CCc2ccccc2)nc2cnc(N3CCOCC3)nc2n1Cc1cccs1
Assayed Target: Dual specificity protein kinase CLK4 (Homo sapiens) (UniProt Q9HAZ1)
Group: inactive
--
Smiles Structure: Cc1ccccc1-c1nccc(NCc2cccs2)n1
Assayed Target: Dual specificity protein kinase CLK4 (Homo sapiens) (UniProt Q9HAZ1)
Group: inactive
--
Smiles Structure: CN(C)C(=O)c1ccc(-c2cc(Nc3ccccc3)ncn2)cc1
Assayed Target: Dual specificity protein kinase CLK4 (Homo sapiens) (UniProt Q9HAZ1)
Group: active
--
Smiles Structure: Cc1noc(C)c1-c1cc(N(C)Cc2ccco2)ncn1
Assayed Target: Dual specificity protein kinase CLK4 (Homo sapiens) (UniProt Q9HAZ1)
Group: inactive
--
Smiles Structure: O=c1cnc2cncnc2n1Cc1ccc(F)cc1
Assayed Target: Dual specificity protein kinase CLK4 (Homo sapiens) (UniProt Q9HAZ1)
Group: inactive
--
Smiles Structure: COCCNc1ncncc1-c1ccccc1OC
Assayed Target: Dual specificity protein kinase CLK4 (Homo sapiens) (UniProt Q9HAZ1)
Group: inactive
